# test.method.notes: solvent given as SMILES
# condition: in CC(=O)O
readout: absorption maximum (nm)
Numeric only. Scale: nm

Below, 3 compounds whose answers are already recorded.
// query // Input: Cc1c2oc3c(C)c(N)cc(C(=O)NC4OC(=O)C(C(C)C)N(C)C(=O)CN(C)C(=O)C5CCCN5C(=O)C(C(C)C)NC4=O)c3nc-2c(C(=O)NC2OC(=O)C(C(C)C)N(C)C(=O)CN(C)C(=O)C3CCCN3C(=O)C(C(C)C)NC2=O)c(N)c1=O (centres undefined) . Output its absorption maximum only.
// result 521

// query Recall and state the measured absorption maximum for "CC(=O)c1ccc(/N=N/c2ccc(Nc3ccccc3)cc2)cc1" .
// result 544

// query Give absorption maximum for the following compound: "CN(C)c1ccc(/C=C/C(=O)c2ccc(Cl)cc2)cc1"
// result 430

Now look at this entry.
// query Answer with the recorded absorption maximum for the compound listed here: "c1ccc(-c2nc(-c3ccc(-c4nc(-c5ccccc5)c(-c5ccccc5)[nH]4)cc3)[nH]c2-c2ccccc2)cc1"
// result 360
